Measured pIC50, listed per entry for reference.
- assay_target: C-X-C chemokine receptor type 6 (Homo sapiens)
- measurement_protocol: Antagonist activity at Prolink-tagged human CXCR6 receptor assessed as inhibition of CXCL16-induced beta-arrestin recruitment by DiscoveRx cell based assay
// pIC50: -log10(molar conc.)

Known results for compounds:
chemical_structure=CCOC(=O)c1ccccc1NC(=O)CN1[C@@H]2CCC[C@H]1C[C@H](NC(=O)c1cc(OC)c(OC)c(OC)c1)C2 quantity_name=pIC50 observed_value=5.80
chemical_structure=COc1ccccc1NC(=O)CN1[C@@H]2CCC[C@H]1C[C@H](NC(=O)c1cc(OC)c(OC)c(OC)c1)C2 quantity_name=pIC50 observed_value=5.68
chemical_structure=COc1cc(C(=O)N[C@@H]2C[C@H]3CCC[C@@H](C2)N3Cc2cc3ccccc3[nH]2)cc(OC)c1OC quantity_name=pIC50 observed_value=4.63
chemical_structure=COc1cc(C(=O)N[C@@H]2C[C@H]3CCC[C@@H](C2)N3Cc2ccccc2Cl)cc(OC)c1OC quantity_name=pIC50 observed_value=5.17
chemical_structure=COc1cc(C(=O)N[C@@H]2C[C@H]3CCC[C@@H](C2)N3Cc2nc3c(C(F)(F)F)cccc3s2)cc(OC)c1OC quantity_name=pIC50 observed_value=7.40

Req: Entry COc1cc(C(=O)N[C@@H]2C[C@H]3CCC[C@@H](C2)N3CC(=O)Nc2ccccc2Br)cc(OC)c1OC has what pIC50?
Resp: 6.80

Req: Entry COc1cc(C(=O)N[C@@H]2C[C@H]3CCC[C@@H](C2)N3Cc2cc3ccccc3s2)cc(OC)c1OC has what pIC50?
Resp: 6.05

Req: Entry COc1cc(C(=O)N[C@@H]2C[C@H]3CCC[C@@H](C2)N3CC(=O)Nc2ccccc2C(F)(F)F)cc(OC)c1OC has what pIC50?
Resp: 6.19

Req: Entry COc1cc(C(=O)N[C@@H]2C[C@H]3CCC[C@@H](C2)N3Cc2ccc(Cl)cc2)cc(OC)c1OC has what pIC50?
Resp: 4.63

Req: Entry COc1cc(C(=O)N[C@@H]2C[C@H]3CCC[C@@H](C2)N3CC(=O)Nc2ccccc2F)cc(OC)c1OC has what pIC50?
Resp: 6.21

Req: Entry COc1ccc(NC(=O)CN2[C@@H]3CCC[C@H]2C[C@H](NC(=O)c2cc(OC)c(OC)c(OC)c2)C3)cc1 has what pIC50?
Resp: 4.72

Req: Entry COc1cc(C(=O)N[C@@H]2C[C@H]3CCC[C@@H](C2)N3Cc2nc3c(OC)cccc3s2)cc(OC)c1OC has what pIC50?
Resp: 5.51

Req: Entry COc1cc(C(=O)N[C@@H]2C[C@H]3CCC[C@@H](C2)N3CC(=O)Nc2ccccc2)cc(OC)c1OC has what pIC50?
Resp: 5.24

---

- assay_target: C-X-C chemokine receptor type 6 (Homo sapiens, UniProt O00574)
- Sequence (O00574 whole entry): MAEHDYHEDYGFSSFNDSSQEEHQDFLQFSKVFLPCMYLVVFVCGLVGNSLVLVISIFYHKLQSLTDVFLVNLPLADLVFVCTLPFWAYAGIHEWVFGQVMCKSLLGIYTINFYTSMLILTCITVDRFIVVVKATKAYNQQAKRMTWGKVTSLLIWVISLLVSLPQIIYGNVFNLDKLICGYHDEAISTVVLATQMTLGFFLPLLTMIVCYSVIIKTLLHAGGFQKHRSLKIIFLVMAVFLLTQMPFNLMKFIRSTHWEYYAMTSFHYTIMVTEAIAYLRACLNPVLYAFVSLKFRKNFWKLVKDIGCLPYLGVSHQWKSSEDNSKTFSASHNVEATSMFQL
- measurement_protocol: Antagonist activity at Prolink-tagged human CXCR6 receptor assessed as inhibition of CXCL16-induced beta-arrestin recruitment by DiscoveRx cell based assay
pIC50: −log10 of the molar value.
Outcome: yes (1) for pIC50 of at least 6; no (0) for anything lower.

chemical_structure=COc1cc(C(=O)N[C@@H]2C[C@H]3CCC[C@@H](C2)N3CC(=O)Nc2cccc(Br)c2)cc(OC)c1OC assigned_category="yes (1)"

Req: Check if pIC50 >= 6 (inclusive). Item: COc1cccc(CN2[C@@H]3CCC[C@H]2C[C@H](NC(=O)c2cc(OC)c(OC)c(OC)c2)C3)c1
Resp: no (0)

Req: Check if pIC50 >= 6 (inclusive). Item: COc1cc(C(=O)N[C@@H]2C[C@H]3CCC[C@@H](C2)N3Cc2nc3ccc(Cl)cc3s2)cc(OC)c1OC
Resp: yes (1)

Req: Check if pIC50 >= 6 (inclusive). Item: COc1cc(C(=O)N[C@@H]2C[C@H]3CCC[C@@H](C2)N3Cc2nc3ccccc3o2)cc(OC)c1OC
Resp: no (0)

Req: Check if pIC50 >= 6 (inclusive). Item: O=C(CN1[C@@H]2CCC[C@H]1C[C@H](NC(=O)c1ccc3c(c1)OCO3)C2)Nc1ccc(Cl)cc1
Resp: no (0)

Req: Check if pIC50 >= 6 (inclusive). Item: COc1cc(C(=O)N[C@@H]2C[C@H]3CCC[C@@H](C2)N3CC(=O)Nc2cccc(C)c2)cc(OC)c1OC
Resp: no (0)

Req: Check if pIC50 >= 6 (inclusive). Item: COc1cc(C(=O)N[C@@H]2C[C@H]3CCC[C@@H](C2)N3Cc2nc3c(C)cccc3s2)cc(OC)c1OC
Resp: yes (1)
